Reference source for all entries: ChEMBL document CHEMBL3045963

- Tested on: Spodoptera litura
- Procedure Text: Insecticidal activity against third-instar larval stage of prestarved Spodoptera litura in castor leaf assessed as mortality at 0.1% treated for 2 secs before larval infestation measured after 24 hr by feeding method
- Type: functional
Output yes (1) for mortality not less than 70%; output no (0) otherwise.

• CCn1cc(C(=O)N/N=C/c2ccccc2Cl)c(=O)c2ccc(C)nc21 = no (0)
• CCn1cc(C(=O)N/N=C/c2ccc(O)cc2O)c(=O)c2ccc(C)nc21 = no (0)
• CCn1cc(C(=O)N/N=C/c2cccc3ccccc23)c(=O)c2ccc(C)nc21 = yes (1)
• CCn1cc(C(=O)N/N=C/c2ccccc2F)c(=O)c2ccc(C)nc21 = yes (1)
• CCn1cc(C(=O)N/N=C/c2ccc(Cl)cc2Cl)c(=O)c2ccc(C)nc21 = yes (1)
• CCn1cc(C(=O)N/N=C/c2ccc(C(C)C)cc2)c(=O)c2ccc(C)nc21 = no (0)
• CCn1cc(C(=O)N/N=C/c2ccccn2)c(=O)c2ccc(C)nc21 = yes (1)
• CCn1cc(C(=O)N/N=C/c2ccccc2C)c(=O)c2ccc(C)nc21 = no (0)
• CCn1cc(C(=O)N/N=C/c2cccc(OC)c2)c(=O)c2ccc(C)nc21 = no (0)
• CCn1cc(C(=O)N/N=C/c2cc(OC)c(OC)c(OC)c2)c(=O)c2ccc(C)nc21 = yes (1)

Has `CCn1cc(C(=O)N/N=C/c2ccc(Cl)cc2)c(=O)c2ccc(C)nc21` a recorded mortality greater than or equal to 70%?
no (0)

Entry `CCn1cc(C(=O)N/N=C/c2cccc(Br)c2)c(=O)c2ccc(C)nc21` : is its mortality no less than 70%?
no (0)

Hello, I need to know if `C/C=C/C=N/NC(=O)c1cn(CC)c2nc(C)ccc2c1=O` has measured mortality not below 70%. Thanks!
no (0)

Could you verify whether the entry `CCn1cc(C(=O)N/N=C/c2cccc(Cl)c2)c(=O)c2ccc(C)nc21` shows mortality of no less than 70%?
yes (1)

Evaluate `CCOc1cc(/C=N/NC(=O)c2cn(CC)c3nc(C)ccc3c2=O)ccc1O` : mortality at minimum 70%?
yes (1)

Test whether the molecule `CCn1cc(C(=O)N/N=C/c2ccc(OC)cc2OC)c(=O)c2ccc(C)nc21` records mortality of 70% or higher.
yes (1)

Answer whether mortality of `CCn1cc(C(=O)N/N=C/c2ccc(OC)c(OC)c2)c(=O)c2ccc(C)nc21` is greater than or equal to 70%.
no (0)

Dear colleague, could you confirm whether `CCn1cc(C(=O)N/N=C/c2cccc(C)c2)c(=O)c2ccc(C)nc21` has mortality at or above 70%?
yes (1)
